# credit: patent US20260159512A1

Target: BCAT2 (Homo sapiens, UniProt O15382)
Sequence (O15382 28-392): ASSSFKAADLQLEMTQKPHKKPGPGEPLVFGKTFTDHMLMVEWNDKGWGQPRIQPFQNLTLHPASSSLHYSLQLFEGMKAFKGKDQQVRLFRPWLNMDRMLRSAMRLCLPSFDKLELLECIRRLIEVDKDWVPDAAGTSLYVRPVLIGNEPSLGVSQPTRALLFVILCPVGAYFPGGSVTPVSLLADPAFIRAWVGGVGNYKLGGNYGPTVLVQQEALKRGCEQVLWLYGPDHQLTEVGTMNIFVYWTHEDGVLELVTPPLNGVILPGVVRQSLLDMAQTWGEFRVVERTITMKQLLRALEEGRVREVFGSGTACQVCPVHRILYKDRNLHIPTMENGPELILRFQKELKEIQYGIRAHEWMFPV
Test: BCAT2 in vitro enzyme inhibition assay (resazurin/diaphorase-coupled fluorescence)
Assay type: biochemical
Conditions: average where tested multiple times
Experimental: BCAT2 In Vitro Enzyme Inhibition Assay 1.67× hBCAT2 Enzyme Mix: 0.33 μg/mL hBCAT2, 1× Buffer 2.5× Substrate Mix: 460 μM L-leucine, 420 μM α-KetoGlutarate, 10 U/mL glutamate dehydrogenase, 10 mM NAD, 30 μg/mL diaphorase, 20 μm Resazurin BCAT2 enzyme stock solution was diluted to prepare a 1.67× hBCAT2 Enzyme Mix. […] Reactions were quenched after one hour by the addition of 25 μL of 6% SDS and reaction progress was measured via fluorescence read (Ex 540/Em 590). […]
Collected IC50 values appear next to each entry.

Examples from the recorded data:
molecule=O=C(N[C@H]1CCC[C@@H](n2c(Oc3ccccc3)nc3cnc(-n4nccn4)cc32)C1)c1ccc(Br)s1 result="≤ 100 nM"
molecule=N#CCc1ccccc1-c1nc2cnc(-c3nc[nH]n3)cc2n1[C@@H]1CCC[C@H](NC(=O)c2ncc(Cl)s2)C1 result="≤ 100 nM"
molecule="CO[C@@H]1C[C@H](NC(=O)c2ncc(Cl)s2)C[C@H](n2c(CC(C)C)nc3cnc(-c4nc[nH]n4)cc32)C1 (stereo in doubt)" result="500 to 1000 nM"
molecule=O=C(N[C@H]1CCC[C@@H](n2c(-c3ccccc3F)nc3cc(-n4nccn4)ncc32)C1)c1ncc(C(F)F)s1 result="≤ 100 nM"

Query: Return value of IC50 for input CC(=O)Cc1nc2cnc(-c3ccccn3)cc2n1[C@@H]1CCC[C@H](NC(=O)c2ncc(Cl)s2)C1 , no commentary.
Response: > 1000 nM

Query: Return value of IC50 for input C#Cc1cnc(C(=O)N[C@H]2CCC[C@@H](n3c(-c4ncccc4C)nc4cnc(-n5nccn5)cc43)C2)s1 , no commentary.
Response: ≤ 100 nM

Query: Return value of IC50 for input CC(C)Cc1nc2cnc(-c3nc[nH]n3)cc2n1[C@@H]1C[C@H](NC(=O)c2ncc(Cl)s2)CN(C)C1 (single isomer, unassigned) , no commentary.
Response: > 1000 nM

###

Molecular target: UniProt:O15382
Assay: BCAT2 in vitro enzyme inhibition assay (resazurin/diaphorase-coupled fluorescence)
Format: biochemical
Settings: average where tested multiple times
pIC50: −log10 of the molar value.
Recorded endpoint: pIC50

molecule=CC(C)Cc1nc2cnc(-c3cc(C(F)(F)F)n[nH]3)cc2n1[C@@H]1CCC[C@H](NC(=O)c2ncc(Cl)s2)[C@H]1O result="6.30 to 7.00"
molecule=CC(C)Cc1nc2cnc(-c3cccc(C#N)n3)cc2n1[C@@H]1CCC[C@H](NC(=O)c2ncc(Cl)s2)[C@H]1O result="6.30 to 7.00"
molecule="CC(C)Cc1nc2cnc(-c3ncccn3)cc2n1[C@@H]1C[C@@H](O)C[C@H](NC(=O)c2ncc(Cl)s2)C1 (stereo in doubt)" result="< 6.00"

Query: Return value of pIC50 for input CNC(=O)c1cc2nc(-c3ccccc3F)n(C3CC(NC(=O)c4ccc(Br)s4)CN(C)C3)c2cc1OC (centres unmarked) , no commentary.
Response: ≥ 7.00

Query: Return value of pIC50 for input N#Cc1cccc(-c2nc3cnc(-c4nc[nH]n4)cc3n2[C@@H]2CCC[C@H](NC(=O)c3ccc(Cl)s3)C2)c1F , no commentary.
Response: ≥ 7.00

Query: Return value of pIC50 for input CC(C)Cc1nc2cnc(-n3ccc(N)n3)cc2n1[C@@H]1CCC[C@H](NC(=O)c2ncc(Cl)s2)C1 , no commentary.
Response: ≥ 7.00

Query: Return value of pIC50 for input COc1cccc(F)c1-c1nc2cnc(-c3nc[nH]n3)cc2n1[C@@H]1CCC[C@H](NC(=O)c2ccc(Cl)s2)C1 , no commentary.
Response: ≥ 7.00

Query: Return value of pIC50 for input CC(C)C(=O)c1nc2cnc(-c3nc[nH]n3)cc2n1[C@@H]1CCC[C@H](NC(=O)c2ncc(Cl)s2)C1 , no commentary.
Response: 6.30 to 7.00

###

Target: BCAT2 (Homo sapiens, UniProt O15382)
Assay: BCAT2 in vitro cell inhibition using engineered A549 cells (KMV cell assay, 13C6-KMV by LC-MS/MS)
Format: cell-based
Design: The result was an engineered A549 cell line that expressed endogenous BCAT2; endogenous in cells; host or cells: A549 cells with MUT and BCAT1 knocked out by CRISPR/CAS9
Details: average where tested multiple times
pIC50: −log10 of the molar value.
Recorded endpoint: pIC50

compound=COC(=O)N1C[C@@H](NC(=O)c2ccc(Cl)s2)C[C@@H](n2c(-c3ccccc3F)nc3cnc(-c4nc[nH]n4)cc32)C1 result="6.00 to 6.30"

Query: Return value of pIC50 for input Cc1nc(-c2cc3c(cn2)nc(CC(C)C)n3[C@@H]2CCC[C@H](NC(=O)c3ncc(Cl)s3)C2)cs1 , no commentary.
Response: < 6.00

###

Biological target: BCAT2 (Homo sapiens)
Test: BCAT2 in vitro enzyme inhibition assay (resazurin/diaphorase-coupled fluorescence)
Type: biochemical
Conditions: average where tested multiple times
Recorded endpoint: IC50

Examples from the recorded data:
molecule=CC(C)Cc1nc2cnc(-n3ncc(CO)n3)cc2n1[C@@H]1CCC[C@H](NC(=O)c2ncc(Cl)s2)C1 result="≤ 100 nM"
molecule=O=C(N[C@H]1CCC[C@@H](n2c(-c3ccccn3)nc3cnc(-n4ccnn4)cc32)C1)c1ncc(C(F)F)s1 result="100 to 500 nM"

Query: With BCAT2 (Homo sapiens) as the test system, provide measured IC50 for this compound: N#Cc1cnc(C(=O)N[C@H]2CCC[C@@H](n3c(-c4ncccc4F)nc4cnc(-n5nccn5)cc43)C2)s1
Response: ≤ 100 nM

###

Molecular target: BCAT2 (Homo sapiens, UniProt O15382)
Assay: BCAT2 in vitro cell inhibition using engineered A549 cells (KMV cell assay, 13C6-KMV by LC-MS/MS)
Assay type: cell-based
Design: The result was an engineered A549 cell line that expressed endogenous BCAT2; endogenous in cells; host or cells: A549 cells with MUT and BCAT1 knocked out by CRISPR/CAS9
Details: average where tested multiple times
Recorded endpoint: IC50

Examples from the recorded data:
compound=O=C(N[C@H]1CCC[C@@H](n2c(-c3ncccc3F)nc3cnc(-c4cc[nH]n4)cc32)C1)c1ncc(C(F)F)s1 recorded_endpoint=IC50 result="≤ 0.1 µM"
compound="O=C(N[C@@H]1CCCC[C@H](n2c(-c3ccccc3F)nc3cnc(-c4nnc[nH]4)cc32)C1)c1ncc(Cl)s1 (single isomer, unassigned)" recorded_endpoint=IC50 result="0.1 to 0.5 µM"
compound=CC(C)[C@@H](O)c1nc2cnc(-c3ccccn3)cc2n1[C@@H]1CCC[C@H](NC(=O)c2ncc(Cl)s2)C1 recorded_endpoint=IC50 result="0.1 to 0.5 µM"
compound="CC(C)Cc1nc2cnc(-n3ncc(C(C)O)n3)cc2n1[C@@H]1CCC[C@H](NC(=O)c2ncc(Cl)s2)C1 (stereo partly shown)" recorded_endpoint=IC50 result="0.1 to 0.5 µM"
compound="CO[C@@H]1C[C@@H](NC(=O)c2ncc(Cl)s2)C[C@@H](n2c(-c3ccccc3C#N)nc3cnc(-c4nc[nH]n4)cc32)C1 (stereo in doubt)" recorded_endpoint=IC50 result="≤ 0.1 µM"

Query: Return value of IC50 for input CC(C)Cc1nc2cnc(-c3nc[nH]n3)cc2n1[C@@H]1CCC[C@H](NC(=O)c2ccc(C(F)(F)F)s2)C1 , no commentary.
Response: ≤ 0.1 µM

Query: Return value of IC50 for input O=C(N[C@H]1CCC[C@@H](n2c(-c3ccccn3)nc3cnc(-n4nccn4)cc32)C1)c1ncc(C(F)F)s1 , no commentary.
Response: 0.1 to 0.5 µM
